Target: Trypsin-activated Cry1F toxin from Bacillus thuringiensis (Bacillus thuringiensis, UniProt Q03746 1-1174)
Sequence (Q03746 28-612 limits assumed): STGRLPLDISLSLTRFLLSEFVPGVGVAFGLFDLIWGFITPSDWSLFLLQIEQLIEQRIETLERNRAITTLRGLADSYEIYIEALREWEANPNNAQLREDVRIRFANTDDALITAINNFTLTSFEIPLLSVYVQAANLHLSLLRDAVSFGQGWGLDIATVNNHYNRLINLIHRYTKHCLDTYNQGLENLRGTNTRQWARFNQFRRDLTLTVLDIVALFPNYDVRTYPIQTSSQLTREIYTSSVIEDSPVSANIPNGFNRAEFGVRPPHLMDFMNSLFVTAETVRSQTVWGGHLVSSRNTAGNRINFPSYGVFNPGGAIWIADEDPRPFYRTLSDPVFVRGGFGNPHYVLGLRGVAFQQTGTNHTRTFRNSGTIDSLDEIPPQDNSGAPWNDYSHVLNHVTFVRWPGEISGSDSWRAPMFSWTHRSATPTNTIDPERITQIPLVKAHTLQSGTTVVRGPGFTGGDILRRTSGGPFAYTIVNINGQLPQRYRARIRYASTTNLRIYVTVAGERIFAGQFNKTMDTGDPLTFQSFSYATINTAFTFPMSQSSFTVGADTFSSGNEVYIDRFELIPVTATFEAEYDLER
Assay: SPR; Biacore 8K; activated Cry1F immobilised on a CM5 chip (10 mM sodium acetate pH 4.0); analytes without His tag in 10 mM HEPES, 150 mM NaCl, 3 mM EDTA, 0.005% Tween-20, pH 7.4; 30 uL/min, association 120 s, dissociation 280 s; 1:1 binding model
Details: both partners purified
measure-name: koff (s⁻¹)
Report the value in s⁻¹ with no unit label.

Could you tell me which koff is on file for CD63 antigen-like (CD63) tetraspanin, His tag removed (natural protein, Wild-type trypsin-activated core; the text prints neither the Cry1F subtype nor the limits. Cry1Fa assumed, with the conventional tryptic core 28-612.) KGNAEALVQKQLYETMQLYTHDVVVTRLWDEVQEDFSCCGVNNASDWLAPLGTANTDQGLPLSCCQFPFGTITVFNCTMATPAPTLRTEGCSTAFGAWVQSHAGS ?
0.00474

Also check C-type mannose receptor 2-like (C-MR2), His tag removed (natural protein, Wild-type trypsin-activated core; the text prints neither the Cry1F subtype nor the limits. Cry1Fa assumed, with the conventional tryptic core 28-612.) SELNTSKSNWFRPDYSYSERTGGWFKFHSVPATWEDARLQCYYEGAELVSPFNENIIQKMIMLMDVNEPYIFTGIHSTFSKGVYTSVGGVPLHEMPVSLHSRDVSGNCVTMRSNGRVEARNCSSQYPYICFKKGPEHLTSSVCGADQEYKYEQRTGSCYKFHTLGRTWPQAFRVCVAEGGHLAIINSDVEADVIRGIFQNYPDDAFKADAKYAASIGFQGWGAVKIWWTIHGQTLQDAGYSKWDKFVPDMRSTRHYCGAVGRNGTLSHIECEGVTFPAICEKKADLV
0.0041

Also check C-type lectin lectoxin-Phi1-like (C-lectoxin), His tag removed (natural protein, Wild-type trypsin-activated core; the text prints neither the Cry1F subtype nor the limits. Cry1Fa assumed, with the conventional tryptic core 28-612.) DVPKDYIVNPNDSHGYKLMYHAKTWTEARDDCANVGAKLAVPKTRDQFEFIQKIVRSMQYQSIVGTEYKLLVWLGISNLKNYQVWANVDGENIEDTEFHTWAGQNGLKSENPAEPHCVGMDSMNFGLRDWWCHQRQPYICEILTVQNATQ
0.00513
